B1: Azoarcus group I ribozyme (parent)
chain: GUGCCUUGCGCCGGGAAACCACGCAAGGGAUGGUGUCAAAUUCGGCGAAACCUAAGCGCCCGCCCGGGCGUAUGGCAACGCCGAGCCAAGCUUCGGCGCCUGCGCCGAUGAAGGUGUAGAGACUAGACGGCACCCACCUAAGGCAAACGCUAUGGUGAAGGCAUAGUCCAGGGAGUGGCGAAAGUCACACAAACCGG

Variants of: B1
Test: reverse-splicing fitness (ratio to wild type); higher = more active; in vitro selection; Mg2+ level not given
experimentalReadout: reverse-splicing fitness
Just the number, please.

>  <var>
C82G A145G C150G C169A

>  <reverse-splicing fitness>
0.00944

$$$$
>  <var>
C82G A111U A120U A145U C150A U176C

>  <reverse-splicing fitness>
0.00518

$$$$
>  <var>
A111U A145U C150U U176G

>  <reverse-splicing fitness>
0.266

$$$$
>  <var>
C82A A111C A120C A145G C150U C169A U176C

>  <reverse-splicing fitness>
0.0162

$$$$
>  <var>
C82G A111G A120C A145G C169G U176A

>  <reverse-splicing fitness>
0.0158

$$$$
>  <var>
C82A A111G C150G C169U U176G

>  <reverse-splicing fitness>
0.00537

$$$$
>  <var>
C82U A120C A145U U176G

>  <reverse-splicing fitness>
0.0114

$$$$
>  <var>
C82A A111C A120G C150G C169U U176C

>  <reverse-splicing fitness>
0.012

$$$$

Query string: Need reverse-splicing fitness of A111G A120G A145C C150U C169A U176G , thanks.
Result string: 0.00411

Query string: Need reverse-splicing fitness of A111C A120C A145G C150G C169A U176G , thanks.
Result string: 0.00793

Query string: Need reverse-splicing fitness of A111C A120U A145C C150U C169U , thanks.
Result string: 0.0171

Query string: Need reverse-splicing fitness of C82U A111G A145C C150A C169U U176G , thanks.
Result string: 0.00504

Query string: Need reverse-splicing fitness of C82U A120G A145C C150A C169U , thanks.
Result string: 0.00698

Query string: Need reverse-splicing fitness of C82A A120C A145U C150G C169A U176C , thanks.
Result string: 0.0131

Query string: Need reverse-splicing fitness of C82A A111G A120C C150G U176G , thanks.
Result string: 0.00391

Query string: Need reverse-splicing fitness of C82G A120C A145U C150G C169A , thanks.
Result string: 0.00974

Query string: Need reverse-splicing fitness of A111C A120G C150U C169U , thanks.
Result string: 0.0919

Query string: Need reverse-splicing fitness of C82G A111G A120C A145C U176C , thanks.
Result string: 0.035

Query string: Need reverse-splicing fitness of A111G A120C A145U C169A U176G , thanks.
Result string: 0.00333

Query string: Need reverse-splicing fitness of A111G C150U U176C , thanks.
Result string: 0.646

Query string: Need reverse-splicing fitness of C82G A111C A120C A145G C150A C169G U176A , thanks.
Result string: 0.0156

Query string: Need reverse-splicing fitness of C82G A111C A120G C169A U176G , thanks.
Result string: 0.00442

Query string: Need reverse-splicing fitness of C82G A111G A120U A145G C150U C169G U176G , thanks.
Result string: 0.00241

Query string: Need reverse-splicing fitness of C82G A111C A120G A145U C150U C169A U176C , thanks.
Result string: 0.0109

Query string: Need reverse-splicing fitness of C82U A111G A145G C150A C169G U176A , thanks.
Result string: 0.0194

Query string: Need reverse-splicing fitness of C82G A120G A145U C150G C169G , thanks.
Result string: 0.0107

Query string: Need reverse-splicing fitness of C82A A111U A120C A145U C150U C169A , thanks.
Result string: 0.0111

Query string: Need reverse-splicing fitness of C82U A111U A120U A145C C150A C169U U176A , thanks.
Result string: 0.0025

Query string: Need reverse-splicing fitness of C82A A111G A145U C150A C169A U176C , thanks.
Result string: 0.0106

Query string: Need reverse-splicing fitness of C82A A120C A145G C169A U176A , thanks.
Result string: 0.0242

This collection of values is drawn from the RNAGym collection of RNA variant scans (doi:10.1093/molbev/msab373).
